Field: Neutralization IC50. Provide a value for each of the binders that follow.
Target: HIV-1 envelope glycoprotein (gp120) of virus VS001 (HIV-1)
Experiment: cell-based or functional assay
One number for each entry, in µg/mL.

| binder | unit-spec | Neutralization IC50 |
| --- | --- | --- |
| 3.1.7-1 (antibody, human IgG1, kappa, V domains shown) VH: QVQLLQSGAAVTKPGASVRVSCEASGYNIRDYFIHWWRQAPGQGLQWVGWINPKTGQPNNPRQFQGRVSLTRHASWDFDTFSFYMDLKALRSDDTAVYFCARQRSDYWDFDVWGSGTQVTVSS VL: DIQMTQSPSSLSARVGDRATITCQANGYLNWYQQRRGKAPKLLIYDGSKLERGVPARFSGSRWGQEYTLTISSLQPEDVATYFCQVYEFFGPGTRLDLKR | µg/mL | 0.3 |
| 2.2.13-1 (antibody, human IgG1, kappa, V domains shown) VH: QVHLSQSGAAVTKPGASVRVSCEASGYKIRDHFIHWWRQAPGQGLQWVGWINPKTGQPNNPRQFQGRVSLTRHASWDFDTFSFYMDLKAVRSDDTAIYFCARQRSDYWDFDVWGSGTQVTVSS VL: DIQMTQSPSSLSARVGDRATITCQANGYLNWYQQRRGKAPKLLIYDGSKLERGVPARFSGSRWGQEYILTISSLQPEDVATYFCQVYEFFGPGTRLDLKR | µg/mL | 1.48 |

Proceeding to the next binder to report its Neutralization IC50.
stdin: For the binder 2.2.7-1 (antibody, human IgG1, kappa, V domains shown) VH: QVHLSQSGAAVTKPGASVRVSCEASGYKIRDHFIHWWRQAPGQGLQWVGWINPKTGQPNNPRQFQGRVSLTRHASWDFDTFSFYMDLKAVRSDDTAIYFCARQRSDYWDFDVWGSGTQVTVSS VL: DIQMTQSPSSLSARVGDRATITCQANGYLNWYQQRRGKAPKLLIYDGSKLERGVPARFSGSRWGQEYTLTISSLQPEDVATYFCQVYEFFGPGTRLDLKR , what Neutralization IC50 is on record?
stdout: 0.27
